compounds and their reported TERMINAL_BW
# Organism: Rattus norvegicus
# TEST DESCRIPTION: Open TG-GATES - Regimen: Single
# Format: toxicity, organism-based, Sprague-Dawley
# Parameters: regimen Single, gender Male, age 6 weeks
# EXPERIMENTAL CONTEXT: in vivo, po, 100 mg/kg, 9 h, route gavage, dose level Low
READOUT NAME: TERMINAL_BW (g)

[
  {
    "COMPOUND": "CCOC(=O)CCC(=O)O[C@H]1[C@H](O[C@@H]2[C@@H](C)[C@H](O[C@H]3C[C@@](C)(OC)[C@@H](O)[C@H](C)O3)[C@@H](C)C(=O)O[C@H](CC)[C@@](C)(O)[C@H](O)[C@@H](C)C(=O)[C@H](C)C[C@@]2(C)O)O[C@H](C)C[C@@H]1N(C)C [ERYTHROMYCIN ETHYLSUCCINATE]",
    "READOUT NAME": "TERMINAL_BW",
    "ENDPOINT RESULT": 216.4
  },
  {
    "COMPOUND": "COc1ccc2[nH]c([S+]([O-])Cc3ncc(C)c(OC)c3C)nc2c1 (centres undefined) [OMEPRAZOLE]",
    "READOUT NAME": "TERMINAL_BW",
    "ENDPOINT RESULT": 217.8
  },
  {
    "COMPOUND": "NC(N)=Nc1nc(CSCCC(N)=NS(N)(=O)=O)cs1 [FAMOTIDINE]",
    "READOUT NAME": "TERMINAL_BW",
    "ENDPOINT RESULT": 209.4
  },
  {
    "COMPOUND": "COC1=CC(=O)C[C@@H](C)[C@]12Oc1c(Cl)c(OC)cc(OC)c1C2=O [GRISEOFULVIN]",
    "READOUT NAME": "TERMINAL_BW",
    "ENDPOINT RESULT": 207.5
  }
]
